System: RXRa DBDmut IVT, anti-RXR (DBD mutation: RXRa K156A/R161A, NR concentration 90 nM)
Assay: PBM binding z-score (relative to random genomic background probes); higher = stronger binding; sequences stand for … in GC…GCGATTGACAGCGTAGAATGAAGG
Record Met whenever PBM binding z-score is at 0.8 or higher; record Not met when lower.

| SEQUENCE DATA | CLASS LABEL |
| --- | --- |
| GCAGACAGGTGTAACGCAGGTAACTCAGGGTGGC | Not met |
| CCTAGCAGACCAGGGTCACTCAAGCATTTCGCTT | Not met |
| CGAACTAGGTCAAGGACAGTGTATCTCCGCACGC | Met |
| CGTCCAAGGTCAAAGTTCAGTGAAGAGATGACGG | Met |
| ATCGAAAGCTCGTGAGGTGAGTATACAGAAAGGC | Not met |
| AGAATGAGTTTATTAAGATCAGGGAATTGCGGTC | Met |
| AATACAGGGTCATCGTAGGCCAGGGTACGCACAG | Met |
